Values compiled from ChEMBL document CHEMBL1671662.

System: Prevotella oris
Assay: Antibacterial activity against Prevotella oris by CLSI M11-A6 agar dilution method
Assay type: functional
Details: Segatella oris
Parameter: MIC90. Scope: all listed entries.
Assay endpoint: MIC90

Compound	Study system	Assay endpoint	Value
CCC[C@@H]1C[C@@H](C(=O)N[C@@H]([C@H]2O[C@H](SC)[C@H](O)[C@@H](O)[C@H]2O)[C@H](C)Cl)N(C)C1 [CLINDAMYCIN]	Prevotella oris	MIC90	≤ 0.12 mg/L
CN[C@H](CC(C)C)C(=O)N[C@H]1C(=O)N[C@@H](CC(N)=O)C(=O)N[C@H]2C(=O)N[C@H]3C(=O)N[C@H](C(=O)N[C@H](C(=O)O)c4cc(O)cc(O)c4-c4cc3ccc4O)[C@H](O)c3ccc(c(Cl)c3)Oc3cc2cc(c3O[C@@H]2O[C@H](CO)[C@@H](O)[C@H](O)[C@H]2O[C@H]2C[C@](C)(N)[C@H](O)[C@H](C)O2)Oc2ccc(cc2Cl)[C@H]1O [VANCOMYCIN]	Prevotella oris	MIC90	> 128 mg/L

###

Test system: Bilophila wadsworthia
Assay: Antibacterial activity against Bilophila wadsworthia by CLSI M11-A6 agar dilution method
Type: functional
Parameter: MIC90. Scope: all listed entries.
Assay endpoint: MIC90 (µg/mL)

> print(dat)
                  compound.structure.string  value
1  CCC[C@@H]1C[C@@H](C(=O)N[C@@H]([C@H]2O[C@H](SC)[C@H](O)[C@@H](O)[C@H]2O)[C@H](C)Cl)N(C)C1      1
2                 Cc1ncc([N+](=O)[O-])n1CCO   0.25
3  CC(=O)NC[C@H]1CN(c2ccc(N3CCOCC3)c(F)c2)C(=O)O1     16

###

Tested on: Clostridioides difficile
Experiment: Antibacterial activity against Clostridium difficile by CLSI M11-A6 agar dilution method
Assay type: functional
Parameter: MIC50. Scope: all listed entries.

Compound structure string	MIC50
CCCCCCCCCC(=O)N[C@@H](Cc1c[nH]c2ccccc12)C(=O)N[C@H](CC(N)=O)C(=O)N[C@@H](CC(=O)O)C(=O)N[C@@H]1C(=O)NCC(=O)N[C@@H](CCCN)C(=O)N[C@@H](CC(=O)O)C(=O)N[C@H](C)C(=O)N[C@@H](CC(=O)O)C(=O)NCC(=O)N[C@H](CO)C(=O)N[C@@H]([C@H](C)CC(=O)O)C(=O)N[C@@H](CC(=O)c2ccccc2N)C(=O)O[C@@H]1C	0.5 µg/mL
CCC[C@@H]1C[C@@H](C(=O)N[C@@H]([C@H]2O[C@H](SC)[C@H](O)[C@@H](O)[C@H]2O)[C@H](C)Cl)N(C)C1	4 µg/mL
CN[C@H](CC(C)C)C(=O)N[C@H]1C(=O)N[C@@H](CC(N)=O)C(=O)N[C@H]2C(=O)N[C@H]3C(=O)N[C@H](C(=O)N[C@H](C(=O)O)c4cc(O)cc(O)c4-c4cc3ccc4O)[C@H](O)c3ccc(c(Cl)c3)Oc3cc2cc(c3O[C@@H]2O[C@H](CO)[C@@H](O)[C@H](O)[C@H]2O[C@H]2C[C@](C)(N)[C@H](O)[C@H](C)O2)Oc2ccc(cc2Cl)[C@H]1O	1 µg/mL
CC(=O)NC[C@H]1CN(c2ccc(N3CCOCC3)c(F)c2)C(=O)O1	2 µg/mL
